Molecular target: serotonin (5-hydroxytryptamine [5HT]) uptake (Rattus norvegicus)
Construct: Either whole brain minus cerebella or hypothalmus is weighed and homogenized in 9 volumes of ice-cold 0.32 M sucrose; from tissue; host or cells: Male Wistar rat brain (whole brain minus cerebella, or hypothalamus), S1 supernatant / synaptosomes
Sequence (P31652 whole entry): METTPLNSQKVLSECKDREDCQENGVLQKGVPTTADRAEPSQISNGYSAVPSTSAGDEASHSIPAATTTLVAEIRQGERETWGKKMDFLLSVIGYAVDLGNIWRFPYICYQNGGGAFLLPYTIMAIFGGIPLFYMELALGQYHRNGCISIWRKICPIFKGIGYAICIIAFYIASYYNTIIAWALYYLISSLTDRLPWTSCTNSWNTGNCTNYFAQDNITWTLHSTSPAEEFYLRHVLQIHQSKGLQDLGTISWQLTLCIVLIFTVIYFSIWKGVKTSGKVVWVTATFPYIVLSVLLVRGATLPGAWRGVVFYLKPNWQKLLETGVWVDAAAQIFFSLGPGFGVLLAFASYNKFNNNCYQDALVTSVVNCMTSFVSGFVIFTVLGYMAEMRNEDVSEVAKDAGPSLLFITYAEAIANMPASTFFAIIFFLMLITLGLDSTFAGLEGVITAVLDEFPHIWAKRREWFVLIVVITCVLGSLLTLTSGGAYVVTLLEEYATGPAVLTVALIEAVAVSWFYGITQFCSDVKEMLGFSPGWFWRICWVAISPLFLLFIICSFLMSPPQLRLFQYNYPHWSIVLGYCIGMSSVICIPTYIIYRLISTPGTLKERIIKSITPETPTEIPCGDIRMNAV
Assay: ³H-serotonin uptake in rat whole brain and hypothalamic synaptosomes
Format: biochemical
Conditions: inhibition of [³H]-5HT uptake, 50 nM ³H-5HT, rat whole brain minus cerebella or hypothalamus, 37°C for 5 minutes; log-probit analysis; read-out: 5-HT-IC₅₀
Structures can show the parent of a compound that is named as a salt.
Measured Property: IC50 (µM)
Express your answer in µM, writing the number without its unit.

Worked examples follow.
{"columns": ["Compound", "IC50 / µM"],
 "data": [
  ["COc1cc(C(C)=O)ccc1OCCCCN1C2CCC1CC(c1n[nH]c3cc(F)ccc13)C2 (stereo not shown)", 0.02],
  ["COc1cc(C(C)=O)ccc1OCCN1C2CCC1CC(c1noc3ccccc13)C2 (stereo not shown) [fumarate]", 0.01],
  ["COc1cc(C(C)=O)ccc1OCCCCN1C2CCC1CC(c1nsc3ccccc13)C2 (stereo not shown) [monohydrochloride]", 0.027]
]}

Switching to the query record.
Lab note: measured IC50 of COc1cc(C(C)=O)ccc1OCCCCN1C2CCC1CC(c1n[nH]c3ccccc13)C2 (stereo not shown) [fumarate hemihydrate] was 0.07
